- TARGET OR SYSTEM: purified bovine erythrocyte CA-II (Bos taurus, UniProt P00921)
- Construct: purified bovine erythrocyte CA-II; from tissue; host or cells: bovine erythrocytes
- Sequence (P00921 whole entry): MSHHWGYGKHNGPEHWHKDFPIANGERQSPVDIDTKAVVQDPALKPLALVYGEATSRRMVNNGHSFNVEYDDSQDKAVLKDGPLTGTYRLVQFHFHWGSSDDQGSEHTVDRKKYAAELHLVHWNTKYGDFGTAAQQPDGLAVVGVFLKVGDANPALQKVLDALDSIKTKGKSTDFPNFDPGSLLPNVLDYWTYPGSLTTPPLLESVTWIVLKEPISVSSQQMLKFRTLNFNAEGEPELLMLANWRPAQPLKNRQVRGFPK
- MEASUREMENT PROTOCOL: Carbonic anhydrase II inhibition (4-nitrophenyl acetate hydrolysis, microplate)
- Format: biochemical
- CONDITION SET: preliminary screening; test concentration not given
Response key: True means % Inhibition >= 90%; False means % Inhibition < 90%.

Hi team, for O=Cc1ccccc1/C=C/C(=O)O [Compound 1, (E)-3-(2-formylphenyl)acrylic acid] , is the recorded % Inhibition at or above 90%? False

Next: `C/C=C(\CC[C@@H](C)[C@H]1CC[C@H]2[C@@H]3CC=C4C[C@@H](O)CC[C@]4(C)[C@H]3CC[C@]12C)C(C)C` False

Next: `O=Cc1ccc(C=O)cc1` True

Next: `CCCCCCCCCCCCCCCCCCC=CCCCCCCCC(=O)O` False

Next: `COC(OC)c1ccc(/C=C/C(=O)O)cc1` True

---

- TARGET OR SYSTEM: purified bovine erythrocyte CA-II (Bos taurus)
- Construct: purified bovine erythrocyte CA-II; from tissue; host or cells: bovine erythrocytes
- MEASUREMENT PROTOCOL: Carbonic anhydrase II inhibition (4-nitrophenyl acetate hydrolysis, microplate)
- Format: biochemical
ASSAY METRIC: pIC50
Just so you know, pIC50 here is -log10 of the concentration in molar units; reply with that number alone.

API: value(readout=pIC50, system=purified bovine erythrocyte CA-II (Bos taurus)) for record `C/C=C(\CC[C@@H](C)[C@H]1CC[C@H]2[C@@H]3CC=C4C[C@@H](O)CC[C@]4(C)[C@H]3CC[C@]12C)C(C)C` 4.50

---

- TARGET OR SYSTEM: purified bovine erythrocyte CA-II (Bos taurus)
- Construct: purified bovine erythrocyte CA-II; from tissue; host or cells: bovine erythrocytes
- MEASUREMENT PROTOCOL: Carbonic anhydrase II inhibition (4-nitrophenyl acetate hydrolysis, microplate)
- Assay type: biochemical
- CONDITION SET: Table 1 and text; unit given; NA = not active; read-out: IC50 ± SEM
ASSAY METRIC: IC50 (µM)
Just the number in µM, nothing appended.

I'd like to know its IC50. The compound in question is O=Cc1ccc(C=O)cc1 [Compound 9, terephthalaldehyde] 53.1

Next: COC(OC)c1ccc(/C=C/C(=O)O)cc1 [Compound 5] 17.7

Next: O=Cc1ccccc1/C=C/C(=O)O [Compound 1, (E)-3-(2-formylphenyl)acrylic acid] 44.9

Next: C=CCCCCCCCCCCCCCCCC [Compound 7, octadec-1-ene] 16.3

Next: CCCCCCCCCCCCCCCCCCC=CCCCCCCCC(=O)O [Compound 19, n-octacos-9-enoic acid] 24.3
